These data points were gathered from ChEMBL document CHEMBL1201862.

Test system: HCC 2998
Experiment: NCI tumour cell line growth inhibition, 48 h
The source made the active and inactive calls. No stated cut-off is given here; in the data, active = GI50 up to about 1.1 µM and inactive = higher.
Quantity: GI50

>  <Molecule>
Cc1csc(NC23CC4CC(CC(C4)C2)C3)[n+]1C(P(=O)([O-])O)P(=O)(O)O (stereo not given)

>  <Quantity>
GI50

>  <Result>
> 100 µM (inactive)

$$$$
>  <Molecule>
CCOC(=O)NC(=O)c1cn(C(CC)COC(=O)NCCCCCCNC(=O)OCC(CC)n2cc(C(=O)NC(=O)OCC)c(=O)[nH]c2=O)c(=O)[nH]c1=O (stereo not given)

>  <Quantity>
GI50

>  <Result>
> 100 µM (inactive)

$$$$
>  <Molecule>
CC(C)(C)c1ccc(-c2nnc(-c3cc(C#N)cc(-c4nnc(-c5ccc(C(C)(C)C)cc5)o4)c3)o2)cc1

>  <Quantity>
GI50

>  <Result>
> 100 µM (inactive)

$$$$
>  <Molecule>
Cn1ccnc1C(c1nccn1C)C(C)(C)[N+](=O)[O-]

>  <Quantity>
GI50

>  <Result>
> 100 µM (inactive)

$$$$
>  <Molecule>
CC1CC(=O)Nc2ccccc2N1C(=O)C1CC1 (stereo not given)

>  <Quantity>
GI50

>  <Result>
> 100 µM (inactive)

$$$$
>  <Molecule>
C[s+]1c2ccccc2c2ccccc21

>  <Quantity>
GI50

>  <Result>
> 100 µM (inactive)

$$$$
>  <Molecule>
Cn1c2ccc3cc2c(=S)c2cc(ccc21)OCCOCCOCCOCCOCCO3

>  <Quantity>
GI50

>  <Result>
> 10 µM (inactive)

$$$$
>  <Molecule>
CC1(C)C/C=C\CCC(O)C(O)CCC(C)(C)C1=O (stereo not given)

>  <Quantity>
GI50

>  <Result>
17.1 µM (inactive)

$$$$
>  <Molecule>
c1csc(-c2cc(-c3ccsc3)c(-c3cccs3)s2)c1

>  <Quantity>
GI50

>  <Result>
55.8 µM (inactive)

$$$$
>  <Molecule>
COc1cc2c(cc1OC)[C@H](C)N1CCc3cc(OC)c(OC)cc3[C@@H]1C2

>  <Quantity>
GI50

>  <Result>
> 100 µM (inactive)

$$$$
